Please respond with reported TGI for every item in the list.
- Test system: CCRF-CEM leukemia
- testSummary: NCI tumour cell line growth inhibition, 48 h

Reference set (6 entries):
CCCn1cc(/C=N\N=C2\C(=O)Nc3ccc(C)cc32)c2ccccc21: > 100 µM
CCCc1cn2c(/C=N/N=C(N)N)c(-c3ccc([N+](=O)[O-])cc3)nc2s1: 1.3 µM
CC1=C(C(=O)NNC(=O)c2ccccc2O)CC(C(=O)NNC(=O)c2ccccc2O)=C(C)N1: > 35.5 µM
CC(Cn1c(=O)oc2ccccc21)N(C)C (stereo not drawn): > 100 µM
CC(C)c1ccc(C(O)(C(=O)O)c2ccc(C(C)C)cc2)cc1: > 100 µM
CCN(CC)CCC(=O)Nc1ccc2sc3ccccc3c(=O)c2n1: 75.6 µM

Could you report TGI for every entry in the following list?
1. C/C(CC(=O)Nc1cccc([N+](=O)[O-])c1)=N/NC(N)=S
2. CCOC(=O)C12CCC(c3c(C)cccc3C)(O1)C(C(=O)OC)=C2C(=O)OC (stereo not drawn)

Given back:
["> 100 µM", "> 10 µM"]

Could you report TGI for every entry in the following list?
1. O=c1oc2ccc(I)cc2c(=O)n1-c1ccc(I)cc1F
2. O=C(O)c1ccc(Nc2nc3ccc(C(F)(F)F)cc3nc2C(=O)O)cc1
3. C[C@H]1[C@H](C)CC[C@]2(C(=O)O)CCC3(COC(=O)/C=C/c4ccc(O)cc4)C(=CCC4[C@@]5(C)CC[C@H](O)C(C)(C)C5CC[C@]43C)[C@H]12 (stereo partly drawn)
4. CCCCCCCCCCCCCC(=O)NO
5. Clc1ccc2c(c1)CC1C[N+]3=C(CCCCC3)C1=C2 (stereo not drawn)

Given back:
1. 10.8 µM
2. > 100 µM
3. 17.3 µM
4. 6.46 µM
5. > 100 µM

Could you report TGI for every entry in the following list?
1. CC1(C)C2=CCCC(=O)[C@@]2(C)CC[C@@H]1O
2. O=C1NC(c2cccc3ccccc23)Nc2ccccc21 (stereo not drawn)
3. CN(CCO)c1nc(=O)c2c(n1C1OC(CO)C(O)C(O)C1O)CCCC2 (stereo not drawn)
4. Oc1c(Cl)c(Cl)c(O)c(-c2cnc(-c3ncc(-c4c(O)c(Cl)c(Cl)c(O)c4Cl)s3)s2)c1Cl
5. COc1ccccc1NC(=O)C(=O)C(c1cnc2ccc([N+](=O)[O-])cc2n1)[N+](=O)[O-] (stereo not drawn)

Given back:
1. > 100 µM
2. 0.538 µM
3. > 100 µM
4. > 100 µM
5. > 100 µM
